Test: Human Hepatocyte Stability (Test D)
Type: in vitro ADME
Conditions: human, cryopreserved pooled human hepatocytes (LiverPool 10-Donor), geometric mean if run multiple times
quantity_measured: hepatocyte CLint at 1 µM (µL/min/1e6 cells)

{"compound": "COc1cc(F)c(-c2ccc(C(=O)O)cc2)cc1C(=O)N[C@@H]1[C@H](C(=O)Nc2cccc(S(=O)(=O)C(F)(F)F)c2)[C@H]2C=C[C@@H]1C2 (single isomer, unassigned) [Example 553]", "quantity_measured": "hepatocyte CLint at 1 µM", "val": 9.2}

P. COc1cc(F)c(-c2ccc(F)c(C(=O)O)c2)cc1C(=O)N[C@H]1[C@@H](C(=O)Nc2cccc(S(=O)(=O)C(F)(F)F)c2)[C@@H]2C=C[C@H]1C2 (racemic) [Example 231]
Q. COc1cc(F)c(-c2ccc(C[C@H](C(=O)O)N(C)C)cc2)cc1C(=O)N[C@@H]1[C@H]2CC[C@H](C2)[C@@H]1C(=O)Nc1cccc(S(=O)(=O)C(F)(F)F)c1 [Example 292]
Prompt: Returns: the argument ( P or Q ) having the larger hepatocyte CLint at 1 µM. Write down the label attached to your selection.
Completion: P
(P: 7.7 µL/min/1e6 cells, Q: 4.6 µL/min/1e6 cells)
